Assay: Plasmodium falciparum growth inhibition, primary screen, strain 3D7, DAPI fluorescence, 100 nL (AID 1184);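 also: parasites grown inside human red blood cells in medium with human serum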
Conditions: P. falciparum 3D7 growth, 3 d, higher = more signal
Class definitions on z-score: bin 0: < -2; bin 1: ≥ -2 and < -0.5; bin 2: ≥ -0.5

// bin(item) where item = `COC(=O)[C@@]1(Cc2ccc(F)cc2)[C@H]2c3cc(C(=O)N(C)C)n(Cc4cccc5ccccc45)c3C[C@H]2CN1C(=O)c1ccccc1` bin 1

Next compound: `C=C[C@H](C)[C@@H](OC(=O)Nc1ccc(SC)cc1)c1ccc(OCCO)cc1` bin 1

Next compound: `C=CCNC(=O)[C@@H]1[C@H]2C(=O)O[C@H](c3ccccc3)[C@H](c3ccccc3)N2[C@H](c2ccc(OCCO)cc2)[C@@]12C(=O)Nc1ccc(C#CC3=CCCCC3)cc12` bin 1

Next compound: `CCOC(=O)C[C@H]1[C@H](OC(=O)c2ccc(-c3ccccc3)cc2)[C@@H](NC(=O)c2ccc(-c3ccccc3)cc2)c2cc(OCCCO)ccc2N1C(=O)c1ccccc1` bin 2

Next compound: `C[C@]1(C(=O)O)c2ccccc2C(=O)N(Cc2cc(C(F)(F)F)cc(C(F)(F)F)c2)[C@H]1c1ccc(CO)cc1` bin 2

###

Assay: small-molecule microarray binders of probe aNog, primary screen, biochemical, biotinylated probe, 635/667 nm fluorescence (AID 1115);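 also: probe is biotinylated aNog protein used at 0.15 µg/mL for 1 h at 4 C; z-score combines 667 nm fluorescence of each spot with its signal to noise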
Details: higher = more signal
composite z-score reference
Write the number on its own, no unit after it.

Sample answers from the record:
- smiles str: "O=C1O[C@@H](c2ccccc2)[C@@H](c2ccccc2)N2[C@@H](c3ccccc3OCCO)[C@]3(C(=O)Nc4ccc(C#CC5(O)CCCCCC5)cc43)[C@@H](C(=O)N3CCCCCCC3)[C@H]12"
  composite z-score: 3.8
- smiles str: "C=CC[C@H](OC(=O)Nc1ccc(SC)cc1)c1ccc(O)c(F)c1"
  composite z-score: -0.267
- smiles str: "NCCCCCCNC(=O)[C@@H]1C[C@@H]2C(=O)NCC(=O)N2[C@@H]1c1cccc(OCCO)c1"
  composite z-score: -0.077

Next compound, please.
Would you kindly share the measured composite z-score for `COc1ccc(CCNC(=O)[C@@H]2c3ccccc3C(=O)N(C(C)C)[C@H]2c2ccc(CO)cc2)cc1` ? -0.0621

###

Test: CREB reporter modulators under forskolin, primary screen, cell-based, PC12, CRE-LacZ reporter, forskolin-stimulated (AID 1146);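 also: PC12 cells with 6xCRE LacZ reporter stimulated by forskolin 10 µM; beta-galactosidase reporter signal reflecting CREB driven transcription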
Conditions: luminescence, 4.5 h, higher = more signal, called active from +8 up or from −8 down
So basically: z-score at 0.1 or higher? That is met. Lower than 0.1? That is not met.

- compound: "COc1ccc(NN2C(C(O)c3ccccc3)C=CC3C(=O)N(C4CCCCC4)C(=O)C32)cc1 (stereo unspecified)"
  category label: "met"

Confirm if z-score reported for the compound `Cc1ccc(S[C@]2(C(=O)NC(C)C)CC(=O)N(Cc3ccccc3)[C@@H]2c2ccc(CO)cc2)cc1` is 0.1 or above. met

Next compound: `COC(=O)C(CC#Cc1ccc2c(c1)[C@]1(C(=O)N2)[C@H](C(=O)N2CCCCCCC2)[C@H]2C(=O)O[C@H](c3ccccc3)[C@H](c3ccccc3)N2[C@@H]1c1ccc(OCCO)cc1)C(=O)OC` not met

###

z-score reference
Assay: mitochondrial membrane potential change in A549 cells, profiling panel, cell-based, JC-1 fluorescence, basal, 24 h, 100 nL (AID 1138);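 also: A549 lung adenocarcinoma cells under basal conditions with no added stimulus; test concentration not given here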
Settings: higher = more signal
Write the number on its own, no unit after it.

Sample answers from the record:
- molecule: "CCCNC(=O)[C@@]1(Sc2ccc(C)cc2)CC(=O)N(Cc2cc(C(F)(F)F)cc(C(F)(F)F)c2)[C@@H]1c1ccc(CO)cc1"
  z-score: -0.328
- molecule: "CCOC(=O)C[C@H]1[C@H](OC(=O)c2cc3ccccc3oc2=O)[C@@H](NC(=O)c2ccc(-c3ccccc3)cc2)c2cc(OCCCO)ccc2N1C(=O)Cc1ccc(OC)cc1"
  z-score: -0.424
- molecule: "COC(=O)C(CC#Cc1ccc2c(c1)[C@]1(C(=O)N2)[C@H](C(N)=O)[C@H]2C(=O)O[C@H](c3ccccc3)[C@H](c3ccccc3)N2[C@@H]1c1ccccc1OCCO)C(=O)OC"
  z-score: -1.05
- molecule: "CC(C)c1ccc(NN2C(C(O)C(C)c3ccccc3)C=CC3C(=O)N(c4ccccc4)C(=O)C32)cc1 (stereo unspecified)"
  z-score: -0.864
- molecule: "O=C(NCCN1CCOCC1)[C@@H]1c2ccccc2C(=O)N(CC23CC4CC(CC(C4)C2)C3)[C@H]1c1ccc(CO)cc1"
  z-score: 1.26

Would you kindly share the measured z-score for `C=CCOC(=O)[C@H]1[C@@H]2C(=O)O[C@@H](c3ccccc3)[C@@H](c3ccccc3)N2[C@@H](c2ccc(OCCOC(=O)[C@H]3C[C@H]4C(=O)NCC(=O)N4[C@H]3c3cccc(OCCO)c3)cc2)[C@]12C(=O)Nc1ccc(I)cc12` ? -0.715

Next molecule: `C=C(CCCC)C(=O)CC[C@H](OC(=O)c1ccccc1-c1ccccc1C(=O)O)c1cccc(OCCO)c1` 0.15

Next molecule: `C=C(C(=O)CC[C@H](OC(=O)c1ccccc1-c1ccccc1C(=O)O)c1ccc(OCCO)cc1)C(C)C` -0.45

Next molecule: `O=C1OC[C@@H](c2ccccc2)n2cc(/C=C/c3ccccc3)cc21` -0.512

Next molecule: `C=CCNC(=O)[C@H]1[C@@H]2C(=O)O[C@@H](c3ccccc3)[C@@H](c3ccccc3)N2[C@@H](c2ccc(OCCO)cc2)[C@]12C(=O)N(C(=O)OCCOC)c1ccc(C#CCC(C(=O)OC)C(=O)OC)cc12` -0.933

Next molecule: `C=C(COC)/C(=C/C[C@@H](OC(C)=O)c1cccc(OCCO)c1)c1cnc2ccccc2c1` 0.031

Next molecule: CC1C2C(CCCO)=CC(C3C(=O)N(C)C(=O)C23)N1Cc1cccc(OC(F)(F)F)c1 (stereo unspecified) -0.703

Next molecule: O=C1NC(=O)C2C1C=CC(C(O)C1CCCCC1)N2Nc1ccccn1 (stereo unspecified) 0.517

Next molecule: `Cc1ccc(S[C@]2(C(=O)NC(C)C)CC(=O)N(Cc3ccccc3)[C@@H]2c2ccc(CO)cc2I)cc1` 1.32

Next molecule: `C=C(CCCC)/C(=C/C[C@@H](OC(C)=O)c1cccc(OCCO)c1)c1cc(C(=O)OC)ccc1OC` 1.63

Next molecule: `COCCCNC(=O)[C@@]1(Cc2ccccc2I)c2ccccc2C(=O)N(Cc2ccccc2C(F)(F)F)[C@H]1c1ccc(CO)cc1` 0.104
